Provenance of the data: patent US6303749A

# maps each entry to its IC50
# TEST TARGET: human melanocortin-4 (MC-4) receptor (human, UniProt P32245)
# ASSAY INFO: displacement of 125I-NDP-alpha-MSH, membranes of HEK 293 cells with hMC4 (value column 1)
Square brackets hold non-standard residues; d marks the D form. Ends that are not written are not given here. Abu = CC[C@H](N)C(=O)O
Dear colleague, please return just the value in nM, with no unit written.

BINDER: RNSCKPPAPAC[Abu]DP[Abu]ASCQCRFFRSACSCRVL (disulfide (positions not given here); not fully specified (bridges); printed as Arg-Asn-Ser-Cys-Lys-Pro-Pro-Ala-Pro-Ala-Cys-Abu-Asp-Pro-Abu-Ala-Ser-Cys-Gln-Cys-Arg-Phe-Phe-Arg-Ser-Ala-Cys-Ser-Cys-Arg-Val-Leu; also: three disulfides, pairing not given here) [peptide of SEQ ID NO:13]
UNIT ABBREVIATION: nM
IC50: 1000

Next binder, please.
Consider the binder HES[Abu]LGQQVPC[Abu]DP[Abu]AT[Abu]YCRFFNAFCYCRKL (disulfide (positions not given here)) [peptide of SEQ ID NO:4] . State its measured IC50. 100
